B1: tRNA (parent)
chain: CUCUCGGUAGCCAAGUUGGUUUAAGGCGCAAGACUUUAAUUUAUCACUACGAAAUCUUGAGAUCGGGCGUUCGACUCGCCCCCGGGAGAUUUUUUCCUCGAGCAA

Variants of: B1
ASSAY_NOTES: nonsense suppression (GFP-seq) (ratio to wild type); higher = more function; SUP4oc tRNA, yeast GFP reporter sort-seq
Fewer inactive variants are shown than the library holds.
Record label 1 whenever nonsense suppression is at 0.3 or higher; record label 0 when lower.

Given the entry A14C U16C G19A A23U C29U A30G C72G C82A , answer whether its nonsense suppression meets or surpasses 0.3.
label 0

Similarly, G10C G19U C64G ?
label 0

Similarly, C1A G10U G61A A62C G73C ?
label 0

Similarly, C1G G61A G78U A87C ?
label 0

Similarly, A13C U55C ?
label 1

Similarly, U63A ?
label 1

Similarly, C1G A54G U63G U70G ?
label 0

Similarly, C1G U16A ?
label 1

Similarly, G6C C34G A54U ?
label 0

Similarly, G25A G32U U71G ?
label 0

Similarly, U22C U58G ?
label 0

Similarly, C11U G78U ?
label 0

Similarly, U63A U76C ?
label 1

Similarly, A30U A60G ?
label 0

Similarly, U16C C82A G85A ?
label 0

Similarly, A13U G78A ?
label 0

Similarly, A24C C68U ?
label 1

Similarly, C72U G78A ?
label 0

Similarly, G7A G26U C29A ?
label 0

Similarly, A9U A74U ?
label 0

Similarly, U55C U58G ?
label 0

Similarly, A9U U21G U22C ?
label 0

Similarly, A30U U76G ?
label 0

Similarly, U8A A24C C79G ?
label 0

Similarly, U76A ?
label 0

Similarly, C27G C79A ?
label 0

Similarly, C12U A13G ?
label 0

Similarly, A9G A13G ?
label 0

Similarly, G15C G67A ?
label 0
